# Experiment Notes: Cytotoxicity / cell proliferation in KB cells (Example 8 Part B)
# Assay type: cell-based, human
# Reported Conditions: human, kb cells; 200 μm, 72 hour exposure; read-out: % Growth
Readout Kind: activity at 72 h, 200 µM (%)
Record the value in %, omitting the unit from your answer.

The reported value for "O=c1ncc(I)cn1[C@H]1C[C@H](O)[C@@H](CO)O1" in terms of activity at 72 h, 200 µM is 80

----------
# Experiment Notes: Cytotoxicity / cell proliferation in KB cells (Example 8 Part B)
# Type: cell-based, human
# Reported Conditions: human, kb cells; 25 μm, 72 hour exposure; read-out: % Growth
Readout Kind: activity at 72 h, 25 µM

The reported value for "O=c1ncc(F)cn1[C@H]1C[C@H](O)[C@@H](CO)O1" in terms of activity at 72 h, 25 µM is 49%

----------
# Experiment Notes: Cytotoxicity / cell proliferation in KB cells (Example 8 Part B)
# Assay type: cell-based, human
# Reported Conditions: human, kb cells; 10 μm, 72 hour exposure; read-out: % Growth
Readout Kind: activity at 72 h, 10 µM (%)
Record the value in %, omitting the unit from your answer.

The reported value for O=c1ncc(F)cn1[C@H]1C[C@H](O)[C@@H](CO)O1 [FPdR] in terms of activity at 72 h, 10 µM is 84

----------
# Experiment Notes: Cytotoxicity / cell proliferation in KB cells (Example 8 Part B)
# Assay type: cell-based, human
# Reported Conditions: human, kb cells; 100 μm, 72 hour exposure; read-out: % Growth
Readout Kind: activity at 72 h, 100 µM (%)
Record the value in %, omitting the unit from your answer.

The reported value for O=c1ncc(I)cn1[C@H]1C[C@H](O)[C@@H](CO)O1 [IPdR] in terms of activity at 72 h, 100 µM is 75

----------
# Experiment Notes: Cytotoxicity / cell proliferation in KB cells (Example 8 Part B)
# Type: cell-based, human
# Reported Conditions: human, kb cells; 50 μm, 72 hour exposure; read-out: % Growth
Readout Kind: activity at 72 h, 50 µM (%)
Record the value in %, omitting the unit from your answer.

The reported value for O=c1ncc(F)cn1[C@H]1C[C@H](O)[C@@H](CO)O1 [FPdR] in terms of activity at 72 h, 50 µM is 21
